target: UniProt P42345; test: Inhibition of mTOR; assay type: biochemical; details: read-out: mTOR (Inhibition % at 50 μM, or IC50); inhibition at 50 μM
measure.name: inhibition at 50 µM (%)

Recorded inhibition at 50 µM, per entry:
- compound: "C(#CC1CCCC1)c1n[nH]c2ccccc12"
  study.target: "UniProt P42345"
  inhibition at 50 µM [%]: 3
- compound: "CC(C)(C)OC(=O)NCCCCCNC(=O)c1ccc(C#Cc2n[nH]c3ccccc23)cc1"
  study.target: "UniProt P42345"
  inhibition at 50 µM [%]: -6
- compound: "Cn1cncc1C#Cc1n[nH]c2cc(C(=O)NC(c3ccncc3)c3ccc(Cl)cc3)ccc12 (centres unmarked)"
  study.target: "UniProt P42345"
  inhibition at 50 µM [%]: -27
- compound: "Cc1ccc2[nH]c(C(C)NC(=O)c3ccc4c(C#Cc5cncn5C)n[nH]c4c3)nc2c1 (centres unmarked)"
  study.target: "UniProt P42345"
  inhibition at 50 µM [%]: -7
- compound: "C(#Cc1n[nH]c2ncccc12)c1ccncc1"
  study.target: "UniProt P42345"
  inhibition at 50 µM [%]: 15
- compound: "NCCCCCNC(=O)c1ccc(C#Cc2n[nH]c3ccccc23)cc1"
  study.target: "UniProt P42345"
  inhibition at 50 µM [%]: 3

a. C(#CC1CC1)c1n[nH]c2ccccc12
b. O=[N+]([O-])c1ccc2c(C#Cc3ccccc3)n[nH]c2c1
Given the two records a and b , choose the one whose inhibition at 50 µM value is lower. Label of pick, please.
b
(b: -1%, a: 2%)

P. Cn1cncc1C#Cc1n[nH]c2cc(C(=O)NCc3ccccn3)ccc12
Q. Nc1cccc(C#Cc2n[nH]c3ccccc23)c1
R. COc1ccc(C#Cc2n[nH]c3ccccc23)cc1
Exam item: list the entries in increasing order of inhibition at 50 µM. Rank them, then answer with their labels in that order.
P, R, Q

All figures here come from patent US7951832B2.
